Reference for the values: ChEMBL document CHEMBL2176884

Test: Inhibition of bacteria biotin carboxylase
observation type: IC50 (nM)
Numeric answer only, unit nM assumed.

stdin: May I ask what IC50 has been recorded for Cc1ccccc1CN(Cc1ccc2c(c1)OCCO2)C(=O)c1cnc(N)o1 ?
stdout: 7

====

Biological target: Pantothenate synthetase (Mycobacterium tuberculosis)
Sequence (P9WIL5 whole entry): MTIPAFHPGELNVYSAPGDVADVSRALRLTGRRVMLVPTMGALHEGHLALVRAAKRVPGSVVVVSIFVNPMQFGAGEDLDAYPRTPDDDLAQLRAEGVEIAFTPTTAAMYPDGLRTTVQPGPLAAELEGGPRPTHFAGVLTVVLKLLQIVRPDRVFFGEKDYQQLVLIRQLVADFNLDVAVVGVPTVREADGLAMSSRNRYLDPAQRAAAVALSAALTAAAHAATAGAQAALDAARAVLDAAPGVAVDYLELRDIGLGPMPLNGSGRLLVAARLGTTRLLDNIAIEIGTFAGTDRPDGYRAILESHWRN
# reported pKd; entries follow
Reminder that pKd means the negative base-10 logarithm of the concentration expressed in mol/L.

stdin: May I ask what pKd has been recorded for COc1ccc2c(c1)cc(C)n2CC(=O)O ?
stdout: 3.10

stdin: Repeat for the following compound: COc1ccc2c(c1)cc(CNC(=O)c1cc3ccccc3o1)n2CC(=O)O
stdout: 6.07

====

Test: Inhibition of Staphylococcus sp. APH(3')-3a
observation type: Ki (µM)
Numeric answer only, unit µM assumed.

O=S(=O)(c1ccc(Cl)c2ccncc12)N1CCNCC1: 49
C[C@H]1CNCCN1S(=O)(=O)c1cccc2cnccc12: 49
NCCNS(=O)(=O)c1ccc(Cl)c2ccncc12: 49
NCCNS(=O)(=O)c1cccc2cnccc12: 49

# context switch: different molecule, same Ki
stdin: May I ask what Ki has been recorded for N=C(N)NCCNS(=O)(=O)c1cccc2cnccc12 ?
stdout: 49

====

Experiment: Inhibition of Escherichia coli ACCase
observation type: IC50 (µM)
Numeric answer only, unit µM assumed.

stdin: May I ask what IC50 has been recorded for COc1cccc(OC)c1-c1cc2cnc(N)nc2nc1N ?
stdout: 0.028
